experiment: in vivo; conditions: female, SCID (HsdIcr:Ha (ICR)-Prkdc-scid), mouse, in vivo, iv, maximum tolerated dose, mice fed a conventional diet; intravenously once each day for ten days
PROPERTY LABEL: MTD at 10 days

### Prompt Query: MTD at 10 days; subject: Nc1nc2[nH]cc(CCc3ccc(C(=O)N[C@@H](CCC(=O)O)C(=O)O)cc3)c2c(=O)[nH]1 [Pemetrexed, pemetrexed]
### Response < 250 mg/kg
